# tested.on: T1, recombinant human VEGF110 (human, UniProt P15692-4 27-136, limits assumed)
# T1 construct: Made in house; also called hVEGF110
# T1 sequence (looked up): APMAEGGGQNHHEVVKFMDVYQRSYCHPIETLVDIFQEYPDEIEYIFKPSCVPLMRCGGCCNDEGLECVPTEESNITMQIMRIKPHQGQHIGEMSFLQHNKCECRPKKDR
# procedure.text: Biacore SPR, VEGF immobilized, pH 5
readout.kind: koff (s⁻¹)
Reply with just the number (in s⁻¹).

Problem: # get_value(readout='koff', item= 567-max (scFv, VL and VH tied by name; also called Protein Nr; 874) scFv: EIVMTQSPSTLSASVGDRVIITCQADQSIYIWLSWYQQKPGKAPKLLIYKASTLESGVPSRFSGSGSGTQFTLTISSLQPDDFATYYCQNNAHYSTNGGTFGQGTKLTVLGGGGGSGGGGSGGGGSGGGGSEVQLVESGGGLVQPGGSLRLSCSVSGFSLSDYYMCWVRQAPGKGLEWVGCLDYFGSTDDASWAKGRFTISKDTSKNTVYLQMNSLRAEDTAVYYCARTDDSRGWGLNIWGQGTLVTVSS )
Result: 3.27e-05

// below: koff requested for another binder
Problem: # get_value(readout='koff', item= 509-max (scFv, VL and VH tied by name; also called Protein Nr; 855) scFv: EIVMTQSPSTLSASVGDRVIITCQASQNIRIWLSWYQQKPGKAPKLLIYKASTLESGVPSRFSGSGSGTEFTLTISSLQPDDFATYYCQNNAHYSTNGGTFGQGTKLTVLGGGGGSGGGGSGGGGSGGGGSEVQLVESGGGLVQPGGSLRLSCTASGFSLSSYYMCWVRQAPGKGLEWVGCLDYVGDTDYASWAKGRFTISKDASKNTVYLQMNSLRAEDTAVYYCARTDDSRGWGLNIWGQGTLVTVSS )
Result: 0.000235
